METHOD_DESCRIPTION: Ulcerogenic dose that produced gastric lesions, ulcers and/or hemorrhage in 50% of the animals tested
Type: ADME, organism-based, Stomach
SETUP_CONDITIONS: rat, in vivo; read-out: UD50 (the source's name)
ASSAY_METRIC: TD50 (mg/kg)
One number for each entry, in mg/kg.

Any idea what TD50 was measured for Cc1ccc(C(=O)c2ccc(CC(=O)O)n2C)cc1 [TOLMETIN] ? 63

###

Please respond with reported log10 of ED50 for every item in the list.
Species on record: Mus musculus
METHOD_DESCRIPTION: Dose giving one-half of average maximal [40%] response in carrageenan assay
Type: functional
Give log10 of ED50, with ED50 taken in mg/kg.

{"STRUCTURE_STRING": "COc1ccc2c(c1)c(CC(=O)O)c(C)n2C(=O)c1ccc(Cl)cc1", "REPORTED": 0.00}
{"STRUCTURE_STRING": "CCCCC1C(=O)N(c2ccccc2)N(c2ccccc2)C1=O", "REPORTED": 1.70}
{"STRUCTURE_STRING": "CC(=O)Oc1ccccc1C(=O)O", "REPORTED": 1.85}
{"STRUCTURE_STRING": "Cc1ccc(C(=O)c2ccc(CC(=O)O)n2C)cc1", "REPORTED": 1.30}

Any idea what log10 of ED50 was measured for `CS(=O)(=O)C1=C(c2ccccc2)N2CCN=C2S1` ? 1.48

###

Tested on: Mus musculus
METHOD_DESCRIPTION: Compound was evaluated for the percent reduction of carrageenan induced edema in mice at dose of 30 mg/kg
Type: functional
Please respond with reported Reduction for every item in the list.
Give bare numbers, in %.

Past entries and their recorded results:
{"MOLECULE": "CS(=O)(=O)C1=C(c2ccccc2)N2CCN=C2S1", "ASSAY_SYSTEM": "Mus musculus", "Reduction / %": 26}
{"MOLECULE": "CC1=C(C(=O)Nc2c(Br)cccc2Br)SC2=NCCN21", "ASSAY_SYSTEM": "Mus musculus", "Reduction / %": 0}

Give Reduction for each listed item.
1. CC1(O)CSC2=NC3CCCCC3N21 (centres undefined)
2. O=S(=O)(C1=C(c2ccccc2)N2CCN=C2S1)c1ccccc1

1: 7; 2: 6

###

METHOD_DESCRIPTION: Compound was evaluated for the toxicity in mice
Format: organism-based
SETUP_CONDITIONS: mouse, in vivo
Note to self: use T only for LD50 readings below 60 mg/kg; a reading exactly at 60 mg/kg still gets F.

{"MOLECULE": "CC1=CSC2=NC3CCCCC3N12 (cis isomer)", "ANSWER_LABEL": "T"}
{"MOLECULE": "CC1=C(C(=O)Nc2c(C)cc(C)cc2C)SC2=NC(C)CN21 (stereo not drawn)", "ANSWER_LABEL": "F"}
{"MOLECULE": "CCOC(=O)C1=C(C)N2CCN=C2S1", "ANSWER_LABEL": "F"}

Please indicate whether the reported LD50 of `c1ccc(C2=C(c3ccccc3)N3CCN=C3S2)cc1` is strictly below 60 mg/kg. T

Please indicate whether the reported LD50 of `CCOC(=O)Cc1ccc(C2=CSC3=NCCN23)cc1` is strictly below 60 mg/kg. F

Please indicate whether the reported LD50 of `COc1ccc2c(c1)c(CC(=O)O)c(C)n2C(=O)c1ccc(Cl)cc1` is strictly below 60 mg/kg. F

Please indicate whether the reported LD50 of CC(C)(C)C1=CSC2=NC3CCCCC3N12 (stereo not drawn) is strictly below 60 mg/kg. T

Please indicate whether the reported LD50 of `CC1=C(C(=O)Nc2cccc(C(F)(F)F)c2)SC2=NCCN21` is strictly below 60 mg/kg. F

Values compiled from ChEMBL document CHEMBL1121836.
